Biological target: T1, Human MASP-3 (CCP1-CCP2-SP S664A) (human, labelled with NHS-PEG4-Biotin (sites not given))
T1 construct: Biotinylated for the cross-reactivity ELISA; also called N-terminally Flag-tagged human MASP-3 (CCP1-CCP2-SP S664A); not shown: N-terminal Flag-tag
T1 chain: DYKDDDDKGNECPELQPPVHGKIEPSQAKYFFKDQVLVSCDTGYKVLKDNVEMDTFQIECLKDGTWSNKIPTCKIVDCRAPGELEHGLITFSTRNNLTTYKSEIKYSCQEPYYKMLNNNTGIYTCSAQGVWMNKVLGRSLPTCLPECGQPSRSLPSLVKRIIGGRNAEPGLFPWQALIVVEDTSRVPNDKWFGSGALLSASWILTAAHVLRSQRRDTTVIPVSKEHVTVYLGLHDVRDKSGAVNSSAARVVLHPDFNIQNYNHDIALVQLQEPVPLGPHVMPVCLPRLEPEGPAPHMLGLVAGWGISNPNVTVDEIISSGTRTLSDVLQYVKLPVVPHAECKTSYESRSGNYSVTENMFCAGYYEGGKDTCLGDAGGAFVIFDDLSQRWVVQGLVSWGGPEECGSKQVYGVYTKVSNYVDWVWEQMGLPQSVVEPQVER
Assay: ELISA, antibody captured by goat anti-human IgG, 8 nM biotinylated antigen, streptavidin-HRP
measured-parameter: absorbance at 405 nm after background subtraction

Per the records, this binder ( MAS0114bb (antibody, human IgG4 S228P, kappa, V domains shown, Rabbit/human chimeric antibody: rabbit variable regions recombined with F760G4 and kOMTC constant regions; also called anti-MASP-1 chimeric mAb MAS0114bb) VH: QSVEESGGRLVTPGTPLTLTCTASGFDINNYAIHWVRQAPGEGLEWIGYIYARSGVTWYASWVKGRFTISKTSTTVDLKMTSLTTEDTATYFCARVLAGGGYANTGLSLWGPGTLVTVSS VL: DIVMTQTPSSVSAAVGGTVTIKCQASQNIGYSSAWYQQKPGQRPKLMIYGASTLASGVPSRFSGSGSGTEYTLTISGVQCDDAATYYCQSNYISSGSVDGTFGGGTKVEIKR ) has absorbance at 405 nm after background subtraction equal to -0.068 absorbance at 405 nm

Sure, the documented absorbance at 405 nm after background subtraction for MAS0154dd (antibody, human IgG4 S228P, kappa, V domains shown, Rabbit/human chimeric antibody: rabbit variable regions recombined with F760G4 and kOMTC constant regions; also called anti-MASP-1 chimeric mAb MAS0154dd) VH: QSVEESGGRLVTPGTPLTLTCTVSGFSLSNYNMGWVRQAPGEGLEYIGIISSQGDIYYATWAKGRFTISKTSTTVDLKITSPTTEDTATYFCARARHVGSAADSYFHLWGLGTLVTVSS VL: AVVLTQTASPVSAAVGGTVTINCQASEEIYRNLAWYQQKPGQRPKLLIYGASNLASGVPSRFSGSGSGTEYTLTISDLECADAATYYCQRYAWGKNSADGNTFGGGTKVEIKR is 0.078 absorbance at 405 nm

These measurements were taken from patent US20210115154A1.
